Every entry's value here was drawn from patent US20220411419A1.

CC50 at 48 h overview
Assay: in vitro
Conditions: human, uninfected SupT1 cells
reported_property: CC50 at 48 h

- molecule: "CC1(C)Cc2cccc(OCC(=O)Nc3nc4c(F)cccc4s3)c2O1"
  reported_property: "CC50 at 48 h"
  result: "> 90 µM"
- molecule: "Cc1csc(N(C(=O)COc2cccc3c2OC(C)(C)C3)c2ccc(F)cc2)n1"
  reported_property: "CC50 at 48 h"
  result: "> 100 µM"
- molecule: "COc1ccc(N(C(=O)COc2cccc3c2OC(C)(C)C3)c2nc(C)cs2)cc1"
  reported_property: "CC50 at 48 h"
  result: "> 100 µM"
- molecule: "Cc1ccc(NC(=O)COc2cccc3c2OC(C)(C)C3)nc1C"
  reported_property: "CC50 at 48 h"
  result: "> 100 µM"
- molecule: "Cc1csc(N(C(=O)COc2cccc3c2OC(C)(C)C3)c2cnccn2)n1"
  reported_property: "CC50 at 48 h"
  result: "> 100 µM"
- molecule: "Cc1ccnc(NC(=O)COc2cccc3c2OC(C)(C)C3)n1"
  reported_property: "CC50 at 48 h"
  result: "> 100 µM"
- molecule: "COc1ccc(NC(=O)COc2cccc3c2OC(C)(C)C3)nn1"
  reported_property: "CC50 at 48 h"
  result: "> 100 µM"
- molecule: "CC1(C)Cc2cccc(OCC(=O)Nc3ncnc4ccccc34)c2O1"
  reported_property: "CC50 at 48 h"
  result: "> 100 µM"
- molecule: "CN(C(=O)CCc1cccc2c1OC(C)(C)C2)c1nc2c(s1)CCCC2"
  reported_property: "CC50 at 48 h"
  result: "> 125 µM"
- molecule: "C=C(C)c1ccc(NC(=O)COc2cccc3c2OC(C)(C)C3)nn1"
  reported_property: "CC50 at 48 h"
  result: "> 100 µM"
- molecule: "Cc1nc(NC(=O)COc2cccc3c2OC(C)(C)C3)ccc1Br"
  reported_property: "CC50 at 48 h"
  result: "> 100 µM"
- molecule: "Cc1cnc(NC(=O)COc2cccc3c2OC(C)(C)C3)cc1C"
  reported_property: "CC50 at 48 h"
  result: "> 125 µM"
- molecule: "C=CCN(C(=O)COc1cccc2c1OC(C)(C)C2)c1nc(C)cs1"
  reported_property: "CC50 at 48 h"
  result: "> 100 µM"
- molecule: "CN(C(=O)COc1cccc2c1OC(C)(C)C2)c1nc2c(s1)CCCC2"
  reported_property: "CC50 at 48 h"
  result: "> 125 µM"
- molecule: "Cc1csc(N(C(=O)COc2cccc3c2OC(C)(C)C3)c2ccncn2)n1"
  reported_property: "CC50 at 48 h"
  result: "> 125 µM"
- molecule: "CC1(C)Cc2cccc(OCC(=O)N(c3ccccc3)c3nc4c(s3)CCCC4)c2O1"
  reported_property: "CC50 at 48 h"
  result: "> 125 µM"
- molecule: "CC1(C)Cc2cccc(OCC(=O)Nc3nc(C(=O)NCC4CCNC4)cs3)c2O1 (stereo not drawn)"
  reported_property: "CC50 at 48 h"
  result: "> 90 µM"
- molecule: "CC(C)c1ccc(NC(=O)COc2cccc3c2OC(C)(C)C3)nc1"
  reported_property: "CC50 at 48 h"
  result: "> 125 µM"
- molecule: "Cc1ccc(N(C(=O)COc2cccc3c2OC(C)(C)C3)c2ccccc2)nn1"
  reported_property: "CC50 at 48 h"
  result: "> 100 µM"
- molecule: "O=C(COc1cccc2c1OCCO2)Nc1nc2ccccc2s1"
  reported_property: "CC50 at 48 h"
  result: "> 100 µM"
- molecule: "Cc1ccc(NC(=O)CCc2cccc3c2OC(C)(C)C3)nn1"
  reported_property: "CC50 at 48 h"
  result: "> 100 µM"
- molecule: "CCc1ccc(NC(=O)COc2cccc3c2OC(C)(C)C3)nn1"
  reported_property: "CC50 at 48 h"
  result: "> 100 µM"
- molecule: "COc1c(OCC(=O)N(C)c2nc3c(s2)CCCC3)cccc1C1CC1"
  reported_property: "CC50 at 48 h"
  result: "> 125 µM"
- molecule: "Cc1csc(N(Cc2ccccc2)C(=O)COc2ccccc2OCc2ccccc2)n1"
  reported_property: "CC50 at 48 h"
  result: "> 125 µM"
- molecule: "Cc1csc(N(C(=O)COc2cccc3c2OC(C)(C)C3)c2ccccc2Cl)n1"
  reported_property: "CC50 at 48 h"
  result: "> 100 µM"
- molecule: "CC1(C)Cc2cccc(CCC(=O)Nc3nc4c(s3)CCCC4)c2O1"
  reported_property: "CC50 at 48 h"
  result: "> 125 µM"
- molecule: "Cc1ccc(NC(=O)COc2cccc3c2OC(C)(C)C3)nn1"
  reported_property: "CC50 at 48 h"
  result: "> 90 µM"
- molecule: "Cc1csc(N(C(=O)COc2cccc3c2OC(C)(C)C3)c2ccccc2C)n1"
  reported_property: "CC50 at 48 h"
  result: "> 100 µM"
- molecule: "Cc1ccc(CN(C(=O)COc2cccc3c2OC(C)(C)C3)c2nc3c(s2)CCCC3)nc1"
  reported_property: "CC50 at 48 h"
  result: "> 100 µM"
- molecule: "CN(C(=O)COc1cccc2c1OC(C)(C)C2)c1nc2c(s1)CCC2"
  reported_property: "CC50 at 48 h"
  result: "124 µM"
- molecule: "Cc1csc(NC(=O)COc2cccc3[nH]ccc23)n1"
  reported_property: "CC50 at 48 h"
  result: "> 100 µM"
- molecule: "CC1(C)Cc2cccc(OCC(=O)Nc3nc4c(-c5ccc[nH]5)cccc4s3)c2O1"
  reported_property: "CC50 at 48 h"
  result: "> 100 µM"
- molecule: "C=Cc1ccc(N(C)C(=O)COc2cccc3c2OC(C)(C)C3)nc1"
  reported_property: "CC50 at 48 h"
  result: "> 125 µM"
- molecule: "Cc1csc(N(C(=O)COc2cccc3c2OC(C)(C)C3)c2ccccc2)n1"
  reported_property: "CC50 at 48 h"
  result: "> 100 µM"
- molecule: "CN(C(=O)COc1cccc2c1OC(C)(C)C2)c1ccc(Br)cn1"
  reported_property: "CC50 at 48 h"
  result: "> 125 µM"
- molecule: "Cc1cccnc1CN(C(=O)COc1cccc2c1OC(C)(C)C2)c1nc2c(s1)CCCC2"
  reported_property: "CC50 at 48 h"
  result: "> 125 µM"

###

Assay: in vitro
Conditions: human, uninfected SupT1 cells

- input_smiles: "CC1(C)Cc2cccc(OCC(=O)N(c3ccccc3)c3nc4ccccc4s3)c2O1"
  CC50 at 48 h: "> 90 µM"
- input_smiles: "CC1(C)Cc2cccc(OCC(=O)Nc3ccc(C#N)cn3)c2O1"
  CC50 at 48 h: "> 100 µM"
- input_smiles: "CC1(C)Cc2cccc(OCC(=O)Nc3cccc(Br)n3)c2O1"
  CC50 at 48 h: "> 125 µM"
- input_smiles: "Cc1ccc(N(C(=O)COc2cccc3c2OC(C)(C)C3)c2nc3c(s2)CCCC3)nn1"
  CC50 at 48 h: "> 100 µM"
- input_smiles: "CC1(C)Cc2cccc(OCC(=O)Nc3nc(C(=O)N4CC(CO)C4)cs3)c2O1"
  CC50 at 48 h: "> 90 µM"
- input_smiles: "COc1ccccc1OCC(=O)Nc1nc2ccccc2s1"
  CC50 at 48 h: "> 100 µM"
- input_smiles: "C=Cc1ccc(NC(=O)COc2cccc3c2OC(C)(C)C3)nc1"
  CC50 at 48 h: "> 125 µM"
- input_smiles: "CCc1ccc(N(C)C(=O)COc2cccc3c2OC(C)(C)C3)nn1"
  CC50 at 48 h: "> 125 µM"
- input_smiles: "Cc1csc(NC(=O)COc2cccc3cc[nH]c23)n1"
  CC50 at 48 h: "> 100 µM"

###

Tested on: downmodulation of MHC-I molecules expressed on the surface of HIV infected SupT1 cells
Assay: cells
Conditions: Human immunodeficiency virus 1, SUP-T1, read-out: EC50 for inhibition of MHC-I downmodulation utilizing the R1 parameter
EC50 overview

- compound: "Cc1csc(N(C(=O)COc2cccc3c2OC(C)(C)C3)c2cnccn2)n1"
  value_qualifier: ">"
  EC50 (µM): 25
- compound: "Cc1csc(N(C(=O)COc2cccc3c2OC(C)(C)C3)c2ccccn2)n1"
  value_qualifier: "="
  EC50 (µM): 0.89
- compound: "CN(C(=O)COc1cccc2c1OC(C)(C)C2)c1ccc(Cl)nn1"
  value_qualifier: ">"
  EC50 (µM): 25
- compound: "Cc1nc(NC(=O)COc2cccc3c2OC(C)(C)C3)ccc1Br"
  value_qualifier: "="
  EC50 (µM): 1.4
- compound: "Cc1ccnc(NC(=O)COc2cccc3c2OC(C)(C)C3)n1"
  value_qualifier: ">"
  EC50 (µM): 25
- compound: "CC1(C)Cc2cccc(OCC(=O)Nc3ccccn3)c2O1"
  value_qualifier: ">"
  EC50 (µM): 25
- compound: "CCc1ccc(N(C)C(=O)COc2cccc3c2OC(C)(C)C3)nc1"
  value_qualifier: "="
  EC50 (µM): 4.6
- compound: "CC1(C)Cc2cccc(OCC(=O)Nc3cncc4ccccc34)c2O1"
  value_qualifier: ">"
  EC50 (µM): 25
- compound: "C=Cc1ccc(N(C)C(=O)COc2cccc3c2OC(C)(C)C3)nc1"
  value_qualifier: "="
  EC50 (µM): 5
- compound: "CCOc1ccccc1OCC(=O)N(C)c1nc2c(s1)CCCC2"
  value_qualifier: "="
  EC50 (µM): 0.22
- compound: "CC1(C)Cc2cccc(OCC(=O)Nc3nc4c(F)c(F)c(F)cc4s3)c2O1"
  value_qualifier: "="
  EC50 (µM): 0.068
- compound: "CC1(C)Cc2cccc(OCC(=O)Nc3cccc4cccnc34)c2O1"
  value_qualifier: ">"
  EC50 (µM): 25
- compound: "CC(C)(C)OC(=O)N1CCC(CNC(=O)c2csc(NC(=O)COc3cccc4c3OC(C)(C)C4)n2)C1 (stereo not shown)"
  value_qualifier: ">"
  EC50 (µM): 25
- compound: "COc1ccccc1CCC(=O)N(C)c1nc2c(s1)CCCC2"
  value_qualifier: "="
  EC50 (µM): 4.1
- compound: "COc1ccc(OCC(=O)N(C)c2nc3c(s2)CCCC3)cc1"
  value_qualifier: ">"
  EC50 (µM): 25
- compound: "COc1ccc(NC(=O)COc2cccc3c2OC(C)(C)C3)nn1"
  value_qualifier: ">"
  EC50 (µM): 25
- compound: "Cc1ccc(CN(C(=O)COc2cccc3c2OC(C)(C)C3)c2ccc(C)cn2)cc1"
  value_qualifier: "="
  EC50 (µM): 5.5
- compound: "COc1ccccc1OCC(=O)Nc1nc2ccccc2s1"
  value_qualifier: "≥"
  EC50 (µM): 25
- compound: "CC1(C)Cc2cccc(OCC(=O)N(Cc3ncccn3)c3nc4c(s3)CCCC4)c2O1"
  value_qualifier: "="
  EC50 (µM): 0.033
